The measurements presented in this section are drawn from patent US20250313579A1.

assay_method_text: Octanol-water distribution coefficient (LogDpH=7.4)
Type: physicochemical
condition_label: n-octanol/PBS pH 7.4; radioactive ligand
Please respond with reported LogDpH=7.4 for every item in the list.
Give the value as a plain number.

C[C@@H](O)[C@H](NC(=O)[C@@H]1CSSC[C@H](NC(=O)[C@@H](Cc2ccccc2)NC(=O)CN2CCN3CCN(CC(=O)NC[C@@H](NC(=O)C[N+](C)(C)Cc4ccc([Si](F)(C(C)(C)C)C(C)(C)C)cc4)C(=O)O)CCN(CC2)CC(=O)[O][Ga+][O]C(=O)C3)C(=O)N[C@@H](Cc2ccc(O)cc2)C(=O)N[C@H](Cc2c[nH]c3ccccc23)C(=O)N[C@@H](CCCCN)C(=O)N[C@@H]([C@@H](C)O)C(=O)N1)C(=O)O [[Ga]02] has a reported LogDpH=7.4 of −1.03

For C[C@@H](O)[C@H](NC(=O)[C@@H]1CSSC[C@H](NC(=O)[C@@H](Cc2ccccc2)NC(=O)CN2CCN3CCN(CC(=O)NCCCC[C@@H](NC(=O)[C@@H](CNC(=O)C[N+](C)(C)Cc4ccc([Si](F)(C(C)(C)C)C(C)(C)C)cc4)NC(=O)[C@@H](CN)NC(=O)[C@@H](CCC(=O)O)NC(=O)[C@H](N)CCC(=O)O)C(=O)O)CCN(CC2)CC(=O)[O][Ga+][O]C(=O)C3)C(=O)N[C@@H](Cc2ccc(O)cc2)C(=O)N[C@H](Cc2c[nH]c3ccccc23)C(=O)N[C@@H](CCCCN)C(=O)N[C@@H]([C@@H](C)O)C(=O)N1)C(=O)O [[Ga]05] the molecule record lists LogDpH=7.4 as −2.12

Measured LogDpH=7.4, C[C@@H](O)[C@H](NC(=O)[C@@H]1CSSC[C@H](NC(=O)[C@@H](Cc2ccccc2)NC(=O)CN2CCN(CC(=O)O)CCN(CC(=O)NCCCC[C@@H](NC(=O)[C@@H](CNC(=O)C[N+](C)(C)Cc3ccc([Si](F)(C(C)(C)C)C(C)(C)C)cc3)NC(=O)[C@@H](CCCCN)NC(=O)[C@@H](CCC(=O)O)NC(=O)[C@H](N)CCC(=O)O)C(=O)O)CCN(CC(=O)O)CC2)C(=O)N[C@@H](Cc2ccc(O)cc2)C(=O)N[C@H](Cc2c[nH]c3ccccc23)C(=O)N[C@@H](CCCCN)C(=O)N[C@@H]([C@@H](C)O)C(=O)N1)C(=O)O : −2.36

###

Assignment: determine reported LogDpH=7.4 for the given compounds.
assay_method_text: Octanol-water distribution coefficient (LogDpH=7.4)
Assay type: physicochemical
condition_label: n-octanol/PBS pH 7.4; radioactive ligand
// print number alone

Record C[C@@H](O)[C@H](NC(=O)[C@@H]1CSSC[C@H](NC(=O)[C@@H](Cc2ccccc2)NC(=O)CN2CCN3CCN(CC(=O)NCCCC[C@@H](NC(=O)[C@@H](CNC(=O)C[N+](C)(C)Cc4ccc([Si](F)(C(C)(C)C)C(C)(C)C)cc4)NC(=O)[C@@H](CCC(=O)O)NC(=O)[C@@H](CCC(=O)O)NC(=O)[C@H](N)CCC(=O)O)C(=O)O)CCN(CC2)CC(=O)[O][Ga+][O]C(=O)C3)C(=O)N[C@@H](Cc2ccc(O)cc2)C(=O)N[C@H](Cc2c[nH]c3ccccc23)C(=O)N[C@@H](CCCCN)C(=O)N[C@@H]([C@@H](C)O)C(=O)N1)C(=O)O [[Ga]07] . Reported LogDpH=7.4: −2.30

Entry C[C@@H](O)[C@H](NC(=O)[C@@H]1CSSC[C@H](NC(=O)[C@@H](Cc2ccccc2)NC(=O)CN2CCN(CC(=O)O)CCN(CC(=O)NCCCC[C@@H](NC(=O)[C@@H](CNC(=O)C[N+](C)(C)Cc3ccc([Si](F)(C(C)(C)C)C(C)(C)C)cc3)NC(=O)[C@@H](CN)NC(=O)[C@@H](CCC(=O)O)NC(=O)[C@H](N)CCC(=O)O)C(=O)O)CCN(CC(=O)O)CC2)C(=O)N[C@@H](Cc2ccc(O)cc2)C(=O)N[C@H](Cc2c[nH]c3ccccc23)C(=O)N[C@@H](CCCCN)C(=O)N[C@@H]([C@@H](C)O)C(=O)N1)C(=O)O [Compound 05] ; LogDpH=7.4 = −1.96
